Values from the supplement of paper PMC10681739

Each entry below carries its reported ETS1 binding intensity.
assayTarget: ETS1 (UniProt P14921)
Sequence: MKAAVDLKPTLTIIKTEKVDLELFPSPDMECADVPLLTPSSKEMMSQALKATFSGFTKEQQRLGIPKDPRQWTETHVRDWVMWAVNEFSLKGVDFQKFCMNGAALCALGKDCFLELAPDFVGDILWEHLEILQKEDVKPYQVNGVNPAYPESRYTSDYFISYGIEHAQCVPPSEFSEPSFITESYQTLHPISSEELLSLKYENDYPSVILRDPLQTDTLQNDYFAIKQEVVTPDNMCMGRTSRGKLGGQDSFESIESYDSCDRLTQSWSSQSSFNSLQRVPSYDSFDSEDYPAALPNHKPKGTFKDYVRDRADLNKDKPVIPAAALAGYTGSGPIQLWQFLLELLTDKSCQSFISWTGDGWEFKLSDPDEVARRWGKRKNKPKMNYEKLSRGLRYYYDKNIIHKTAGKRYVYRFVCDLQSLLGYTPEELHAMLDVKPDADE
assayNotes: ETS1 binding intensity (PBM fluorescence), ETS1 alone (arbitrary fluorescence units); higher = stronger binding
measurementConditions: ETS1 concentration 1 nM; RUNX1 concentration 0 nM

Recorded results for 2 sequences are shown here.
>>> experimentalresult("AGCGCGCCGCCGACCGGATGCGGGAACTGGGCTCGG")
11800
>>> experimentalresult("TGCTCCACTCGGAAGTGGTGCCGCAGCTCTTCGATG")
697

# input for lookup
Task: Which measured ETS1 binding intensity value corresponds to `TTTATCATGAATGCAGGATGTGGGCAAACTCATGAC` ?
Output: 2860

* * *

assayTarget: ETS1 (UniProt P14921)
Sequence: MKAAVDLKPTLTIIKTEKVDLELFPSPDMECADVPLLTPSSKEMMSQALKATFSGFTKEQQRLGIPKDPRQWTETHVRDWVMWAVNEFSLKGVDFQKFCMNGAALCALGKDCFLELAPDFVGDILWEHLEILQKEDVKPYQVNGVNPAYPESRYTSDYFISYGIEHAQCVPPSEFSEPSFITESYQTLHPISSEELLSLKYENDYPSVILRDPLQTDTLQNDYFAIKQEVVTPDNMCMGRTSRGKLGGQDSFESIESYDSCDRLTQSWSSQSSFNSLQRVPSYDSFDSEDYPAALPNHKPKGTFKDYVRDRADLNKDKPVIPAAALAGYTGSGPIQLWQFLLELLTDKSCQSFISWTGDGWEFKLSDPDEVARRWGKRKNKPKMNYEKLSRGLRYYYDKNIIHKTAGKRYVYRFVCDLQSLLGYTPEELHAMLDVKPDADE
assayNotes: ETS1 binding intensity (PBM fluorescence) in presence of RUNX1, normalised to ETS1-only experiment (arbitrary fluorescence units); higher = stronger binding
measurementConditions: ETS1 concentration 1 nM; RUNX1 concentration 25 nM
Label met for high-side ETS1 binding intensity (at or above 3000) and not met for low-side ETS1 binding intensity (below it).

Task: Can `GAAGTGAGGTCAGGATGTGGTGGGTGACCCCTGAAA` be said to have ETS1 binding intensity at or above 3000?
Output: not met

Task: Quick check, ETS1 binding intensity >= 3000? `TACGTCACTTCCGGGCCGCCGTCCTGCGGGCAAGGG`
Output: met

* * *

# RUNX1 binding intensity per record follows
assayTarget: RUNX1 (UniProt Q01196)
Sequence (Q01196 whole entry): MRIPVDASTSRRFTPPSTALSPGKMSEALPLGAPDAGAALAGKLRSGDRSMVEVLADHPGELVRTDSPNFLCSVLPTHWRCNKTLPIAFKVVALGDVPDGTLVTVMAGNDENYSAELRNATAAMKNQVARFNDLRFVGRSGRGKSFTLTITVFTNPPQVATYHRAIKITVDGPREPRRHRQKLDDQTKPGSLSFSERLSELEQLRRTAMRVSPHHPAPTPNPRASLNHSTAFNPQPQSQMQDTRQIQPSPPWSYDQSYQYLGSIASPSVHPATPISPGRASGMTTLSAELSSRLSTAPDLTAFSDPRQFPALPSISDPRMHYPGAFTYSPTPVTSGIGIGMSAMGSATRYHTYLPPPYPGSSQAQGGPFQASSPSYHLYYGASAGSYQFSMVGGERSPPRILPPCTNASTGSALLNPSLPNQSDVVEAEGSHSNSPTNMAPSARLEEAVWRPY
assayNotes: RUNX1 binding intensity (PBM fluorescence) in presence of ETS1, normalised to RUNX1-only experiment (arbitrary fluorescence units); higher = stronger binding
measurementConditions: RUNX1 concentration 2 nM; ETS1 concentration 25 nM
Give the figure by itself; no unit, no explanation.

Field: example entries. Status: answers known.
>>> experimentalresult("CTTCAGCCGCCACTTCCCCGCCCCCGCAGCCCGACA")
1290
>>> experimentalresult("CTTGGCGGAAGTGGTGTGGGGGAGGTAGCCCGCAGT")
3460
>>> experimentalresult("TAAGAAAAACAGTCATCCTGCGGTTTCCATTTGTGA")
5090
>>> experimentalresult("ACCCCAGGTACCGGAAGACCACAATTCCCAGGAGTC")
1880
>>> experimentalresult("GCAGGCGGAGCTTGAGGAAACCGCAGATAAGTTTTT")
10200

Now let's try a different one.
Task: # returns recorded RUNX1 binding intensity (system: RUNX1 (UniProt Q01196)) for `CGATGCTTCCGGCCTCCTATTGGGTGGTTTCTTGGC`
Output: 2040

* * *

assayTarget: RUNX1 (UniProt Q01196)
assayNotes: RUNX1 binding intensity (PBM fluorescence), RUNX1 alone (arbitrary fluorescence units); higher = stronger binding
measurementConditions: RUNX1 concentration 2 nM; ETS1 concentration 0 nM
Parameter: RUNX1 binding intensity. Scope: all listed entries.
Please give the numeric answer without any surrounding text.

Examples from the recorded data:
>>> experimentalresult("CCATCCAGGAAGCTTATGGTGCAACCGCAGTGTGCC")
943
>>> experimentalresult("AACTGCCTGGTGGCCGGAAACCGCTGGAGGGAGGGC")
793
>>> experimentalresult("CTCCGCCAGCCACCGGAACTGCGGCCCAGCAAAAAG")
927
>>> experimentalresult("GTTAGAGGAAGAGGAAGCGGTCAAGAGATCGTCACA")
766
>>> experimentalresult("GCGCAAAGCCGGAAGGAGGGGTTTGCGGCTGGGGAG")
769

Now look at this one.
Task: Reported RUNX1 binding intensity, sequence `CCTCCCGACCGGAAGCCCCGCCACAGAGCGGGTTGT` : ____
Output: 848

* * *

assayTarget: ETS1 (UniProt P14921)
Sequence: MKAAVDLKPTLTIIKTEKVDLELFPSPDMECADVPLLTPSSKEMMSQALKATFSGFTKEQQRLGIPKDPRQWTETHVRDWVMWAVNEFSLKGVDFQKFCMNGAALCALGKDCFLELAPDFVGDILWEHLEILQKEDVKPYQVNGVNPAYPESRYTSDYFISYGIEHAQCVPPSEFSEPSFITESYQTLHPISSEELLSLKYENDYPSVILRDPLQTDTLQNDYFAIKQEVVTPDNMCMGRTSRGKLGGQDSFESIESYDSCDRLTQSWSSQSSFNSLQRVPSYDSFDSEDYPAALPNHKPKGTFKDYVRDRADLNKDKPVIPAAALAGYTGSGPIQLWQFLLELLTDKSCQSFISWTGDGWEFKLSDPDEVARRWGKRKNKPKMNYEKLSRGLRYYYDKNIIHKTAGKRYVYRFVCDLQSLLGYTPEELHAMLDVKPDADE
assayNotes: ETS1 binding intensity (PBM fluorescence), ETS1 alone (arbitrary fluorescence units); higher = stronger binding
measurementConditions: ETS1 concentration 1 nM; RUNX1 concentration 0 nM
quantityName: ETS1 binding intensity
// return just the number, without any unit appended

The following sequences have reported results that may help.
>>> experimentalresult("AGATGCAAACACAGGAAACTTGTGGTCTATGCTGCT")
1800
>>> experimentalresult("AGGACCTAACACTCAGGAAGTGGTCAACCTTGCTGC")
2760
>>> experimentalresult("GGAAAGCGGAAGAAAAAAGCAAGATGGGACCGCAAG")
445

Task: Param item = `CTGTTTCCGAGTAAAGTAGGGTGTGTGGGTCACATG` ; retrieve measured ETS1 binding intensity.
Output: 456

Task: Would you mind telling me what ETS1 binding intensity value was observed for `GCCACTTCCTGGAAAACAGTAATTACCACACGTCTC` ?
Output: 464

Task: Fill blank: measured ETS1 binding intensity of the sequence `GCGAAAAACGCGGAAATGCGGTGGCGGCGGCCCGCT` is ____.
Output: 885

* * *

assayTarget: RUNX1 (UniProt Q01196)
assayNotes: RUNX1 binding intensity (PBM fluorescence) in presence of ETS1, normalised to RUNX1-only experiment (arbitrary fluorescence units); higher = stronger binding
measurementConditions: RUNX1 concentration 2 nM; ETS1 concentration 25 nM
Entries annotated with measured RUNX1 binding intensity
Response field accepts a number only; no unit should be typed.

>>> experimentalresult("GTTGTGCTCTTTCCTGCTTCCCGCAGTTTTTTAGTT")
1890
>>> experimentalresult("CTGTGCGAGGCAGGATGTGGTCTCCCGCCACCAGGG")
3160
>>> experimentalresult("ATAAACAGGAAGCTGAGTATGTGACCACAGACATTC")
1630

Task: Please look up its RUNX1 binding intensity: `TGAGAAAACAGGAAGCGCCCAGTCACCACAGAAAGC`
Output: 1330

Task: Return reported RUNX1 binding intensity; argument: `AGCCGTCATTCAGGATGTGGTGACAGACATGGAGAC`
Output: 1320

Task: Look at this sequence and give its reported RUNX1 binding intensity. `TTCAGAAAAAAAGGAAGTGGTAAATTCTTGCTGATT`
Output: 1500

* * *

sequences and their reported ETS1 binding intensity
assayTarget: ETS1 (UniProt P14921)
Sequence: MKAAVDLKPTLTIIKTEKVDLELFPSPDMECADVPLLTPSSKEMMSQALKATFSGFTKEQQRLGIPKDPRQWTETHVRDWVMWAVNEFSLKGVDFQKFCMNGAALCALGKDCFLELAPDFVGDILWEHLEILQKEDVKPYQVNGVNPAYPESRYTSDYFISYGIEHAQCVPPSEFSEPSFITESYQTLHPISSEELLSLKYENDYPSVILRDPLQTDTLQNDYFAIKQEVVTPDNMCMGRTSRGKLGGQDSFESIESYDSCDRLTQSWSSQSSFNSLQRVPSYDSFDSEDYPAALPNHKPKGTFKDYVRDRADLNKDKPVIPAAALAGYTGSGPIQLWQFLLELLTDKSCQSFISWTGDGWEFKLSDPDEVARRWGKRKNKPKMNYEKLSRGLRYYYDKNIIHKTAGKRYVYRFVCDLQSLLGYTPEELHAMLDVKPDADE
assayNotes: ETS1 binding intensity (PBM fluorescence) in presence of RUNX1, normalised to ETS1-only experiment (arbitrary fluorescence units); higher = stronger binding
measurementConditions: ETS1 concentration 1 nM; RUNX1 concentration 25 nM
Reply briefly: the number, and no unit.

Here are 5 sequences together with their reported answers.
>>> experimentalresult("AGGAGTGTCACTTCCTCTTTCCTCACCACAGCCTCC")
1440
>>> experimentalresult("ACATTTCCTTTTGGTATTTAAAGTAACCACACAGAA")
668
>>> experimentalresult("ACAGGAAGTGAGGCTGTGAGGAGTTTGTGGTGTGTA")
4960
>>> experimentalresult("GGGGCCCCGGATGCACTGAGCGGCTGCGGCGCGGCT")
642
>>> experimentalresult("CCGCGCCGCTTCCTCCAGACACCGCAAGGGGGTGCT")
446

Task: Recall the recorded ETS1 binding intensity for `ACTTCCAGGAAGCCCCATAGTCCAGAAACCCACACA` with ETS1 (UniProt P14921) and state it.
Output: 402

Task: # returns recorded ETS1 binding intensity (system: ETS1 (UniProt P14921)) for `GAAATCCATCACGGATGTGGGCTTTTTGCTCTCATT`
Output: 1620

Task: Field: ETS1 binding intensity (ETS1 (UniProt P14921)). Entry: `TACGGGAACTTCCTTTTCTTGTGGTGTGGCCGGGTC`
Output: 853

Task: Notebook: pull reported ETS1 binding intensity for ETS1 (UniProt P14921), entry `AGGACCTAACACTCAGGAAGTGGTCAACCTTGCTGC`
Output: 3710
